Recorded screen value values for a group of variants are listed next.
B1: MBOAT1 peptide 17-32 (Lysophospholipid acyltransferase 1), 16-mer library wild type / NSP3 ADRP (ORF1ab Nsp3b ADRP, residues 1023-1192) (parent)
chain 1: STYLHPLSELLGIPLD
chain 2: not shown

Variants of: B1
Conditions: with NSP3 ADRP (ORF1ab Nsp3b ADRP, residues 1023-1192); bait immobilised on MaxiSorp plates (10 µg), library pre-cleared on GST, 2 h binding at 4 °C, five washes; one round per day, days 1-4; value from days 2 and 3; keep out of graded; scale: average fractional NGS count over selection days 2 and 3
Simply state the number, no unit and no words.

Known screen value results, listed for orientation:
# Variant designation, screen value
records = [
    ("chain 1 S1Y", 0.00667),
    ("chain 1 Y3E", "2.37e-05"),
    ("chain 1 G12W", "3.64e-05"),
]

Qu. Give its screen value value. Item: chain 1 H5M
Ans. 0

Qu. // returns reported screen value for input chain 1 G12H
Ans. 0.000369

Qu. For chain 1 I13F , what is its reported screen value?
Ans. 0.00253

Qu. screen value for chain 1 P14I ?
Ans. 2.27e-05
